Data credit: PubChem BioAssay

RUN_DESCRIPTION: inhibitors of TNFa-induced NFkB p65 translocation, primary screen, imaging, HUVEC, MLSMR starter and 10KST1 sets (AID 438);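 also: compound added about 3h40 before a 20 min TNFalpha stimulation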
CONDITION_DETAILS: HUVEC TNFa-induced p65 nuclear translocation; measured here: nuclei count (cytotoxicity indicator), at 2.08 µM
PROPERTY: cell count

Illustrative cases are given below, each with its answer.
// lookup cell count for O=C(Cn1ncc2c1-c1ccccc1OC2)N1CCN(c2ccccn2)CC1 631

Can you look up the measured cell count of CCOC(=O)C(CC)Sc1nc2c(c(=O)[nH]c(=O)n2C)n1C/C=C(/C)Cl (stereo not drawn) for me? 775

Request the reported cell count associated with Cn1c(=O)c2c(nc(SCC(=O)NCc3ccco3)n2C)n(C)c1=O 616

State the recorded cell count for this entry: Cc1ccc(/C=c2\sc3nc(-c4ccccc4Br)nn3c2=O)o1 277

If you can, please state the reported cell count value of COc1ccc(OC)c(NC(=O)CCNS(=O)(=O)c2cccs2)c1 . 662

Would you mind telling me what cell count value was observed for CCOc1ccc(N(CC(=O)NCc2ccco2)S(=O)(=O)c2ccc(OC)c(OC)c2)cc1 ? 429

I would be grateful if you could share the reported cell count for Cc1ccc(C(C(=O)NC2CCCCC2)N2CCOCC2)cc1 (stereo not drawn) . 674

Any idea what its cell count is? The compound is CCc1nc(N)c(C#N)c(-c2ccncc2)c1C 598

Next item in the queue.
Given CC(C)CN(C(=O)COC(=O)Cc1n[nH]c(=O)c2ccccc12)C1CCS(=O)(=O)C1 (stereo not drawn) , state its recorded cell count. 399

====

RUN_DESCRIPTION: inhibitors of TNFa-induced NFkB p65 translocation, primary screen, imaging, HUVEC, MLSMR starter and 10KST1 sets (AID 438);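 also: compound added about 3h40 before a 20 min TNFalpha stimulation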;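 as to inhibition: signal is the nuclear over cytoplasmic p65 intensity ratio per well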
CONDITION_DETAILS: HUVEC TNFa-induced p65 nuclear translocation; at 2 µM, stronger effect = higher value, 0% TNFa-plus-vehicle, 100% no-TNFa wells
Measured inhibition values are reported for all entries that follow.
State just the number; it will be interpreted in %.

Can you share its inhibition? I mean this molecule: C=CCn1c(=O)c(C(=O)Nc2ccccc2C(=O)OCC)c(O)c2ccccc21 -5.5

Next:
Any idea what its inhibition is? The molecule is Cc1ccc(NC(=O)C2CCCN(S(=O)(=O)c3cnc[nH]3)C2)cc1C (stereo unspecified) 1.6

# get_value(readout='inhibition', item= O=S(=O)(NC1CCCCC1NS(=O)(=O)c1ccc(F)cc1)c1ccc(F)cc1 (stereo unspecified) ) 5.3

Quick check: inhibition of COC(=O)c1cc(Br)c(=O)n(-c2ccc(OC)cc2)c1 ? -0.5

====

RUN_DESCRIPTION: TLR3 IRF3 reporter activation blockers – cell-based, poly I:C stimulus, luciferase, 10K MLSCN set, primary screen (AID 602277)
CONDITION_DETAILS: HEK293-TLR3 RL24 IRF3 luciferase reporter, at 10 µM, stronger effect = higher value
Calls of active or inactive are those of the source.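 Rule for the calls: active = inhibition of the reporter signal at or above 50%; inactive = inhibition below 50%.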
PROPERTY: inhibition

The following compounds have reported results that may help.
Looking for the measured inhibition of CCc1ccc(C=NC23CN4CN(CN(C4)C2)C3)s1 , can you help? -0.158% (inactive)

Name the recorded inhibition for Cn1c(C(=O)NCC2CCCO2)cc2c(=O)n(C)c3ccccc3c21 (stereo unspecified) . 19% (inactive)

For the compound CCN(CC)S(=O)(=O)c1ccc2c(c1)nc(SCC(=O)NC1CC1)n2-c1ccccc1OC , what inhibition is on record? 48.2% (inactive)

What inhibition value was documented for this compound, CC(C)(O)C1=NOC(c2ccccc2)C1 (stereo unspecified) ? 22.8% (inactive)

Bench note: what inhibition did COc1ccccc1NC(=O)c1ccc(COc2ccccc2OC)o1 show? 4.47% (inactive)

// next item, inhibition requested
Which inhibition value is on record for COc1ccc(Cn2nnnc2C(c2ccccc2OC)N2CCC(C(N)=O)CC2)cc1 (stereo unspecified) ? 25.5% (inactive)
